System: MCF7
Experiment: Cytotoxicity against human MCF7 cells assessed as reduction in cell viability incubated for 72 hrs by MTT assay
Assay type: functional, cell-based
Details: MCF7, 72 h
result_type: pIC50
Give only the number. pIC50 is defined as minus log10 of concentration in molar units.

Give its pIC50 value. Item: CNC(=O)c1cc(Oc2ccc(C3=NNC(c4ccc(F)cc4)C3)cc2)ccn1 (centres undefined)
5.02

Give its pIC50 value. Item: CNC(=O)c1cc(Oc2ccc(C3=NNC(c4ccccc4)C3)cc2)ccn1 (centres undefined)
5.91

Give its pIC50 value. Item: CNC(=O)c1cc(Oc2ccc(C3CC(c4ccc([N+](=O)[O-])cc4)=NN3)cc2)ccn1 (centres undefined)
5.10

Give its pIC50 value. Item: CNC(=O)c1cc(Oc2ccc(C3CC(c4ccc(Br)cc4)=NN3)cc2)ccn1 (centres undefined)
4.82

Give its pIC50 value. Item: CNC(=O)c1cc(Oc2ccc(C3=NNC(c4cccc(Br)c4)C3)cc2)ccn1 (centres undefined)
5.71

Give its pIC50 value. Item: CNC(=O)c1cc(Oc2ccc(C3=NNC(c4ccc(OC)cc4)C3)cc2)ccn1 (centres undefined)
4.96

Give its pIC50 value. Item: CNC(=O)c1cc(Oc2ccc(C3=NNC(c4cccc([N+](=O)[O-])c4)C3)cc2)ccn1 (centres undefined)
4.45

Give its pIC50 value. Item: CNC(=O)c1cc(Oc2ccc(C3CC(c4ccc(Cl)cc4)=NN3)cc2)ccn1 (centres undefined)
4.82

Give its pIC50 value. Item: CNC(=O)c1cc(Oc2ccc(C3=NNC(c4ccc(OC)c(OC)c4OC)C3)cc2)ccn1 (centres undefined)
5.00
